- TARGET ENTITY: T1, corticotropin releasing factor 2 receptor
- T1 sequence (Q13324 whole entry, species assumed, looked up): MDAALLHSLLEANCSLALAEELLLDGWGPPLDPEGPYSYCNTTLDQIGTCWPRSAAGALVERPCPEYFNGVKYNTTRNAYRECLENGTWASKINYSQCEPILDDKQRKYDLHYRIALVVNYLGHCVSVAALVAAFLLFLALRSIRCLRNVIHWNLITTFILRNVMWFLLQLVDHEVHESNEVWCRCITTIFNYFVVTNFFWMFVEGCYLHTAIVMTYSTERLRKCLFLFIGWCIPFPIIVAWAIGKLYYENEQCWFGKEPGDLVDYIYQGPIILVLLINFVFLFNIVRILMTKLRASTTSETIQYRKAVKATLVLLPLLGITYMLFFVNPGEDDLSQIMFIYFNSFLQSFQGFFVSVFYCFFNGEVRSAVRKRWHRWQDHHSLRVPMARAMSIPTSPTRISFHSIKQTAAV
- METHOD SUMMARY: cell-based or functional assay
Ends that are not written are not given here.
MEASURED ENDPOINT: CRF2R Emax % (%)
Give just the number in %; leave the unit off.

ZGPPISIDLPYALLRKMIEIEKQEKEKQQAANNRLLLDTI (not fully specified; C-terminal amide) [SEQ ID NO 309]    99.9

Data request: Dear colleague, I am looking for the recorded CRF2R Emax % of the following binder: ZGPPISIDLPFQLLRKAIEIEKQEKEKQQATTNARLLDRV (C-terminal amide) [SEQ ID NO 363]
Data returned: 100

Data request: Dear colleague, I am looking for the recorded CRF2R Emax % of the following binder: NDDPPISIDLPLILLRNMIEMARIENEREQAGLNAKYLAEV-NH2 [SEQ ID NO 269]
Data returned: 77.3

Data request: Dear colleague, I am looking for the recorded CRF2R Emax % of the following binder: ZGPPISIDLPYQLLRKVIEIEKQEKEKQQAANNARLLARI (C-terminal amide) [SEQ ID NO 286]
Data returned: 92.5

Data request: Dear colleague, I am looking for the recorded CRF2R Emax % of the following binder: IVLSLDVPIGLLQILLEQEKARAAREQATTNARILARV-NH2 [SEQ ID NO 325]
Data returned: 100

Data request: Dear colleague, I am looking for the recorded CRF2R Emax % of the following binder: ZGPPISIDLPYQLLRKMIEIEKQEKEKQQAANNARLLAR (C-terminal amide) [SEQ ID NO 287]
Data returned: 100

Data request: Dear colleague, I am looking for the recorded CRF2R Emax % of the following binder: ZGPPISIDVPYQLLRKVIEIEKQEKEKQQAANNARLLARI (C-terminal amide) [SEQ ID NO 375]
Data returned: 100

Data request: Dear colleague, I am looking for the recorded CRF2R Emax % of the following binder: ZGPPISIDLSLELLRKMIEIEKQEKEKQQAANNRLLLDTI (C-terminal amide) [SEQ ID NO 355]
Data returned: 95

Data request: Dear colleague, I am looking for the recorded CRF2R Emax % of the following binder: ZGPPISIDLPAFLLRKMIEIEKQEKEKQQAANNRLLLDTI (C-terminal amide) [SEQ ID NO 222]
Data returned: 100

Data request: Dear colleague, I am looking for the recorded CRF2R Emax % of the following binder: ZGPPISIDLPIFLLRKVIEIEKQEKEKQQAANNALLLATI (C-terminal amide) [SEQ ID NO 280]
Data returned: 82.3

Data request: Dear colleague, I am looking for the recorded CRF2R Emax % of the following binder: NDDPPISIDLPLYLLRNMIEMARIENEREQAGLNAKYLAEV-NH2 [SEQ ID NO 271]
Data returned: 69

Data request: Dear colleague, I am looking for the recorded CRF2R Emax % of the following binder: ZGPPISIDLPYWLLRKVIEIEKQEKEKQQAANNALLLDTI (C-terminal amide) [SEQ ID NO 311]
Data returned: 100

Data request: Dear colleague, I am looking for the recorded CRF2R Emax % of the following binder: ZGPPISIDVPFQLLRKMIEIEKQEKEKQQAANNRLLLDTI (C-terminal amide) [SEQ ID NO 256]
Data returned: 100

Data request: Dear colleague, I am looking for the recorded CRF2R Emax % of the following binder: ZGPPISIDVPFQLLRKVIEIEKQEKEKQQAANNARLLARI (C-terminal amide) [SEQ ID NO 383]
Data returned: 96

Data request: Dear colleague, I am looking for the recorded CRF2R Emax % of the following binder: DNPSLSIDLPLLLLRTLLELEKTQSQRERAEQNAEIFAEV-NH2 [SEQ ID NO 323]
Data returned: 100

Data request: Dear colleague, I am looking for the recorded CRF2R Emax % of the following binder: NDDPPISIDLPFLLLRNMIEMARIENEREQAGLNAKYLAEV-NH2 [SEQ ID NO 260]
Data returned: 89.3

Data request: Dear colleague, I am looking for the recorded CRF2R Emax % of the following binder: DNPSLSIDVPLFLLRTLLELEKTQSQRERAEQNARIFARV-NH2 [SEQ ID NO 385]
Data returned: 100

Data request: Dear colleague, I am looking for the recorded CRF2R Emax % of the following binder: ZGPPISIDLPYYLLRKMIEIEKQEKEKQQAANNALLLDTI (C-terminal amide) [SEQ ID NO 226]
Data returned: 100

Data request: Dear colleague, I am looking for the recorded CRF2R Emax % of the following binder: DNPSLSIDLPLLLLRTLLELEKTQSQRERAEQNARIFDRV-NH2 [SEQ ID NO 338]
Data returned: 77.5
